Procedure Summary: Approximate kinetic solubility in simulated biological fluids
Assay type: physicochemical
Condition Info: simulated gastric fluid; SGF (pH 1.2), about 37° C., equilibrated for 1 day
Counter-ions that a name gives are not always drawn.
Attribute Measured: solubility kinetic at 1 day (µg/mL)
Dear colleague, please return just the value in µg/mL, with no unit written.

Query string: Please give the measured solubility kinetic at 1 day for this molecule: CCS(=O)(=O)N1CCN(c2ccc(Nc3ncc(C(N)=O)c(NC4CC4)n3)cc2)CC1 [Compound I HCl Form I]
Result string: 78

---

Procedure Summary: Approximate kinetic solubility in pharmaceutical co-solvents
Assay type: physicochemical
Condition Info: aqueous with cosolvent or surfactant or cyclodextrin, thermodynamic from solid; 10% Pharmasolve in aqueous solution, no-pH adjustment, 24 hrs.
Where a name gives a salt, the structure may show the parent alone.
Attribute Measured: solubility kinetic at 24 h (µg/mL)
Dear colleague, please return just the value in µg/mL, with no unit written.

Query string: Please give the measured solubility kinetic at 24 h for this compound: CCS(=O)(=O)N1CCN(c2ccc(Nc3ncc(C(N)=O)c(NC4CC4)n3)cc2)CC1 [Compound I HCl Form I]
Result string: 570

---

Procedure Summary: Further solubility testing of Compound I HCl Form I in solvents
Type: physicochemical
Condition Info: 2-MeTHF, organic solvent or mixture
Structures can show the parent of a compound that is named as a salt.
Attribute Measured: solubility

Query string: Please give the measured solubility for this compound: CCS(=O)(=O)N1CCN(c2ccc(Nc3ncc(C(N)=O)c(NC4CC4)n3)cc2)CC1 [Compound I HCl Form I]
Result string: < 2100 µg/mL

---

Procedure Summary: Approximate kinetic solubility in pharmaceutical co-solvents
Assay type: physicochemical
Condition Info: aqueous with cosolvent or surfactant or cyclodextrin, thermodynamic from solid; 10% HP-β-CD in aqueous solution, no-pH adjustment, 2 hrs.
Counter-ions that a name gives are not always drawn.
Attribute Measured: solubility kinetic at 2 h (µg/mL)
Dear colleague, please return just the value in µg/mL, with no unit written.

Query string: Please give the measured solubility kinetic at 2 h for this compound: CCS(=O)(=O)N1CCN(c2ccc(Nc3ncc(C(N)=O)c(NC4CC4)n3)cc2)CC1 [Compound I HCl Form I]
Result string: 1880

---

Procedure Summary: Approximate kinetic solubility in pharmaceutical co-solvents
Format: physicochemical
Condition Info: aqueous with cosolvent or surfactant or cyclodextrin, thermodynamic from solid; 35% Labrasol in aqueous solution, no-pH adjustment, 24 hrs.
Text: A summary of the approximate kinetic solubility of Compound I HCl Form I in organic solvents, simulated biological fluids, and common pharmaceutical co-solvents is provided in Tables 8-10, respectively.
Structures can show the parent of a compound that is named as a salt.
Attribute Measured: solubility kinetic at 24 h (µg/mL)
Dear colleague, please return just the value in µg/mL, with no unit written.

Query string: Please give the measured solubility kinetic at 24 h for this molecule: CCS(=O)(=O)N1CCN(c2ccc(Nc3ncc(C(N)=O)c(NC4CC4)n3)cc2)CC1 [Compound I HCl Form I]
Result string: 2010

---

Procedure Summary: Approximate kinetic solubility in pharmaceutical co-solvents
Format: physicochemical
Condition Info: aqueous with cosolvent or surfactant or cyclodextrin, thermodynamic from solid; 30% PEG in aqueous solution, no-pH adjustment, 24 hrs.
Where a name gives a salt, the structure may show the parent alone.
Attribute Measured: solubility kinetic at 24 h (µg/mL)
Dear colleague, please return just the value in µg/mL, with no unit written.

Query string: Please give the measured solubility kinetic at 24 h for this molecule: CCS(=O)(=O)N1CCN(c2ccc(Nc3ncc(C(N)=O)c(NC4CC4)n3)cc2)CC1 [Compound I HCl Form I]
Result string: 450

---

Procedure Summary: Approximate kinetic solubility in pharmaceutical co-solvents
Format: physicochemical
Condition Info: aqueous with cosolvent or surfactant or cyclodextrin, thermodynamic from solid; 20% TPGS in aqueous solution, no-pH adjustment, 24 hrs.
Counter-ions that a name gives are not always drawn.
Attribute Measured: solubility kinetic at 24 h (µg/mL)
Dear colleague, please return just the value in µg/mL, with no unit written.

Query string: Please give the measured solubility kinetic at 24 h for this molecule: CCS(=O)(=O)N1CCN(c2ccc(Nc3ncc(C(N)=O)c(NC4CC4)n3)cc2)CC1 [Compound I HCl Form I]
Result string: 2420

---

Procedure Summary: Approximate kinetic solubility in pharmaceutical co-solvents
Assay type: physicochemical
Condition Info: aqueous with cosolvent or surfactant or cyclodextrin, thermodynamic from solid; 20% PEG in aqueous solution, no-pH adjustment, 24 hrs.
Structures can show the parent of a compound that is named as a salt.
Attribute Measured: solubility kinetic at 24 h (µg/mL)
Dear colleague, please return just the value in µg/mL, with no unit written.

Query string: Please give the measured solubility kinetic at 24 h for this compound: CCS(=O)(=O)N1CCN(c2ccc(Nc3ncc(C(N)=O)c(NC4CC4)n3)cc2)CC1 [Compound I HCl Form I]
Result string: 370

---

Procedure Summary: Further solubility testing of Compound I HCl Form I in solvents
Type: physicochemical
Condition Info: toluene, organic solvent or mixture
Structures can show the parent of a compound that is named as a salt.
Attribute Measured: solubility

Query string: Please give the measured solubility for this compound: CCS(=O)(=O)N1CCN(c2ccc(Nc3ncc(C(N)=O)c(NC4CC4)n3)cc2)CC1 [Compound I HCl Form I]
Result string: < 2100 µg/mL

---

Procedure Summary: Further solubility testing of Compound I HCl Form I in solvents
Type: physicochemical
Condition Info: MIBK, organic solvent or mixture
Structures can show the parent of a compound that is named as a salt.
Attribute Measured: solubility

Query string: Please give the measured solubility for this compound: CCS(=O)(=O)N1CCN(c2ccc(Nc3ncc(C(N)=O)c(NC4CC4)n3)cc2)CC1 [Compound I HCl Form I]
Result string: < 2300 µg/mL

---

Procedure Summary: Approximate kinetic solubility in pharmaceutical co-solvents
Assay type: physicochemical
Condition Info: aqueous with cosolvent or surfactant or cyclodextrin, thermodynamic from solid; 50% PEG in aqueous solution, no-pH adjustment, 24 hrs.
Structures can show the parent of a compound that is named as a salt.
Attribute Measured: solubility kinetic at 24 h (µg/mL)
Dear colleague, please return just the value in µg/mL, with no unit written.

Query string: Please give the measured solubility kinetic at 24 h for this compound: CCS(=O)(=O)N1CCN(c2ccc(Nc3ncc(C(N)=O)c(NC4CC4)n3)cc2)CC1 [Compound I HCl Form I]
Result string: 870

---

Procedure Summary: Further solubility testing of Compound I HCl Form I in solvents
Assay type: physicochemical
Condition Info: acetone, organic solvent or mixture
Structures can show the parent of a compound that is named as a salt.
Attribute Measured: solubility

Query string: Please give the measured solubility for this compound: CCS(=O)(=O)N1CCN(c2ccc(Nc3ncc(C(N)=O)c(NC4CC4)n3)cc2)CC1 [Compound I HCl Form I]
Result string: < 2200 µg/mL

---

Procedure Summary: Approximate kinetic solubility in pharmaceutical co-solvents
Type: physicochemical
Condition Info: aqueous with cosolvent or surfactant or cyclodextrin, thermodynamic from solid; 5% Captisol in aqueous solution, no-pH adjustment, 2 hrs.
Counter-ions that a name gives are not always drawn.
Attribute Measured: solubility kinetic at 2 h (µg/mL)
Dear colleague, please return just the value in µg/mL, with no unit written.

Query string: Please give the measured solubility kinetic at 2 h for this compound: CCS(=O)(=O)N1CCN(c2ccc(Nc3ncc(C(N)=O)c(NC4CC4)n3)cc2)CC1 [Compound I HCl Form I]
Result string: 3010

---

Procedure Summary: Approximate kinetic solubility in simulated biological fluids
Format: physicochemical
Condition Info: simulated gastric fluid; SGF (pH 1.2), about 37° C., equilibrated for 2 hrs
Structures can show the parent of a compound that is named as a salt.
Attribute Measured: solubility kinetic at 2 h (µg/mL)
Dear colleague, please return just the value in µg/mL, with no unit written.

Query string: Please give the measured solubility kinetic at 2 h for this compound: CCS(=O)(=O)N1CCN(c2ccc(Nc3ncc(C(N)=O)c(NC4CC4)n3)cc2)CC1 [Compound I HCl Form I]
Result string: 67

---

Procedure Summary: Approximate kinetic solubility in pharmaceutical co-solvents
Type: physicochemical
Condition Info: aqueous with cosolvent or surfactant or cyclodextrin, thermodynamic from solid; 5% HP-β-CD in aqueous solution, no-pH adjustment, 24 hrs.
Counter-ions that a name gives are not always drawn.
Attribute Measured: solubility kinetic at 24 h (µg/mL)
Dear colleague, please return just the value in µg/mL, with no unit written.

Query string: Please give the measured solubility kinetic at 24 h for this compound: CCS(=O)(=O)N1CCN(c2ccc(Nc3ncc(C(N)=O)c(NC4CC4)n3)cc2)CC1 [Compound I HCl Form I]
Result string: 1390

---

Procedure Summary: Approximate kinetic solubility in simulated biological fluids
Type: physicochemical
Condition Info: FaSSIF (pH 6.1), about 37° C., equilibrated for 2 hrs
Where a name gives a salt, the structure may show the parent alone.
Attribute Measured: solubility kinetic at 2 h (µg/mL)
Dear colleague, please return just the value in µg/mL, with no unit written.

Query string: Please give the measured solubility kinetic at 2 h for this compound: CCS(=O)(=O)N1CCN(c2ccc(Nc3ncc(C(N)=O)c(NC4CC4)n3)cc2)CC1 [Compound I HCl Form I]
Result string: 3

The origin of these recorded values is patent US11713309B2.
